Origin of measurements: ChEMBL document CHEMBL3301562

# system.tested: Cdk-related protein kinase 6 (Plasmodium falciparum)
# Sequence (O77239 whole entry): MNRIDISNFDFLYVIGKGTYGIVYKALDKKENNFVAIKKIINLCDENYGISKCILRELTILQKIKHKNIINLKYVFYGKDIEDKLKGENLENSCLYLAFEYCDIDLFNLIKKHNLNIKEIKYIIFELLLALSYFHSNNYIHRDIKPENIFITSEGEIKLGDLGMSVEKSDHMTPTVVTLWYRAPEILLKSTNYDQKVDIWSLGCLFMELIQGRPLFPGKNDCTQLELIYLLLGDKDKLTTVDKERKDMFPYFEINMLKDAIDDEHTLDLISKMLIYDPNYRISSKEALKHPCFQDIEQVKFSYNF
# procedure.summary: Final concentrations were 1.5 uM ATP, 5 mM MnCl2, and 15 ug/ml PK6 in a buffer of 100 mM Tris-HCl (pH 7.5). 50 ug/mL MBP was provided as the substrate; 10 uM staurosporine was used as a control inhibitor. Incubation time was 3 hours and 40 minutes.The catalytic activity of each kinase was considered proportional to ATP consumed, as determined from measurements of residual [ATP] with the luciferase-based reagent Kinase-Glo (Promega) following incubation. Luminescence (proportional to residual [ATP]) was measured on the plate readers FLx800 (BioTek Instruments, Winooski, VT, USA) and MicroBeta2.
pIC50: −log10 of the molar value.
metric.name: pIC50

compound	metric.name	value.reported
Cc1ccc2cc3c(N)c4c(C)ccc(C)c4nc3nc2c1	pIC50	< 6.00
O=C(Nc1cccc(C(F)(F)F)c1)c1cc(Cl)ccc1O	pIC50	< 6.00
CC1CCN(Cc2ccc(NC(=O)c3cc4ccc5cccnc5c4[nH]3)cc2)CC1	pIC50	< 6.00
COc1ccc(-c2nonc2NC(=O)c2cccc(Cl)c2)cc1OC	pIC50	< 6.00
O=C(Nc1ccc(Cl)cc1)N1CCN(c2ccc3nncn3n2)CC1	pIC50	< 6.00
Cc1[nH]c(-c2ccc(F)cc2)cc1C(=O)NC1CCN(Cc2ccccc2)CC1	pIC50	< 6.00
C=C(C)CCC(C)N1CCC(N2CCC(C(=O)NCCc3ccccc3)CC2)CC1 (stereo unspecified)	pIC50	< 6.00
Oc1ccccc1CNCC12CC3CC(CC(C3)C1)C2	pIC50	< 6.00
CC(O)(c1ccc(Cl)cc1)C(CN1CCCCC1)c1ccccc1 (stereo unspecified)	pIC50	< 6.00
CN1C=C(c2ccc3ccccc3n2)C(c2c[nH]c3ccccc23)c2ccccc21 (stereo unspecified)	pIC50	< 6.00
COCCNCC(O)Cn1c2ccc(Cl)cc2c2cc(Cl)ccc21 (stereo unspecified)	pIC50	< 6.00
COc1ccc(CCn2c(=N)c(C(=O)NCc3cccnc3)cc3c(=O)n4cccc(C)c4nc32)cc1	pIC50	< 6.00
CCCCCCn1c(=N)n(CC(O)COc2cccc(C)c2)c2ccccc21 (stereo unspecified)	pIC50	< 6.00
COc1ccc(-c2nc(NC(=O)CS(=O)(=O)c3ccc(F)cc3)sc2C)cc1	pIC50	< 6.00
CCN(CC)c1cc(C)c2cc(NC(=O)c3cccc(OC)c3)ccc2n1	pIC50	< 6.00
COc1ccc(NC(=O)C2c3ccccc3C(=O)N(CC(C)C)C2c2cccs2)cc1 (stereo unspecified)	pIC50	< 6.00
COc1cc2c3cc1Oc1c(OC)c(OC)cc4c1C(Cc1ccc(O)c(c1)Oc1ccc(cc1)CC3N(C)CC2)N(C)CC4 (stereo unspecified)	pIC50	< 6.00
CC(C)(C)c1ccc(C2CC3=Nc4ccccc4N(C(=O)c4ccccc4Cl)C(c4ccc(F)cc4)C3=C(O)C2)cc1 (stereo unspecified)	pIC50	< 6.00
COc1ccc(C2Sc3ccccc3N=C3C2=C(O)c2ccccc23)cc1 (stereo unspecified)	pIC50	< 6.00
COc1cccc(NC(=O)[C@H](C(C)C)n2c(=O)[nH]c3ccccc3c2=O)c1	pIC50	< 6.00
Cc1ccc(C2CC(C(F)(F)F)n3nc(C(=O)N4CCN(C(c5ccccc5)c5ccccc5)CC4)cc3N2)cc1 (stereo unspecified)	pIC50	< 6.00
